Known pIC50 of a selection of molecules
Biological target: Falcipain 2 (Plasmodium falciparum)
Sequence (Q9N6S8 whole entry): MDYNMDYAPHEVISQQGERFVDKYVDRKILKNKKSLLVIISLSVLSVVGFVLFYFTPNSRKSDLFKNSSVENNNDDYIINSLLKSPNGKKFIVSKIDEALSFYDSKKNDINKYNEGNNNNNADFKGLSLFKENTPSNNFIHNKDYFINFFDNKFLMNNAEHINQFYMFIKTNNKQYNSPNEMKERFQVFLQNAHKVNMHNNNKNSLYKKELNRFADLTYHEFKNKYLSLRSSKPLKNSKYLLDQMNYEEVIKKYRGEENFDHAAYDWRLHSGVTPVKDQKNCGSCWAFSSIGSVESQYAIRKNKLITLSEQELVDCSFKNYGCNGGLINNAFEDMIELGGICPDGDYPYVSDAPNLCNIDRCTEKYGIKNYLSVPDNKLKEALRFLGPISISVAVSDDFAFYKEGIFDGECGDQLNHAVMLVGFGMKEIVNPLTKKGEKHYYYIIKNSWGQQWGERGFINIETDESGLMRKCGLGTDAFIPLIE
Experiment: Inhibition of Plasmodium falciparum FP2 using Z-Leu-Arg-AMC as substrate preincubated for 30 min followed by substrate addition measured after 30 mins by spectrofluorimetric method
pIC50: −log10 of the molar value.
Assay Endpoint: pIC50

[
  {
    "Smiles Entry": "Nc1nc(N)c2cc(NCc3ccc(CCNC(=O)c4ccc([N+](=O)[O-])cc4)cc3)ccc2n1",
    "Measured": 5.00
  },
  {
    "Smiles Entry": "COc1cccc(C(=O)NCCc2ccc(CNc3ccc4nc(N)nc(N)c4c3)cc2)c1",
    "Measured": 5.21
  },
  {
    "Smiles Entry": "Nc1nc(N)c2cc(NCc3ccc(CCNC(=O)c4ccc5c(c4)OCO5)cc3)ccc2n1",
    "Measured": 5.29
  },
  {
    "Smiles Entry": "Nc1nc(N)c2cc(NCc3ccc(CCNC(=O)Cc4ccccc4)cc3)ccc2n1",
    "Measured": 5.12
  },
  {
    "Smiles Entry": "Nc1nc(N)c2cc(NCc3ccc(CCNC(=O)c4cccs4)cc3)ccc2n1",
    "Measured": 5.00
  }
]

----------
Target: Bifunctional dihydrofolate reductase-thymidylate synthase (Plasmodium falciparum K1) (UniProt P13922)
Sequence (P13922 whole entry, looked up): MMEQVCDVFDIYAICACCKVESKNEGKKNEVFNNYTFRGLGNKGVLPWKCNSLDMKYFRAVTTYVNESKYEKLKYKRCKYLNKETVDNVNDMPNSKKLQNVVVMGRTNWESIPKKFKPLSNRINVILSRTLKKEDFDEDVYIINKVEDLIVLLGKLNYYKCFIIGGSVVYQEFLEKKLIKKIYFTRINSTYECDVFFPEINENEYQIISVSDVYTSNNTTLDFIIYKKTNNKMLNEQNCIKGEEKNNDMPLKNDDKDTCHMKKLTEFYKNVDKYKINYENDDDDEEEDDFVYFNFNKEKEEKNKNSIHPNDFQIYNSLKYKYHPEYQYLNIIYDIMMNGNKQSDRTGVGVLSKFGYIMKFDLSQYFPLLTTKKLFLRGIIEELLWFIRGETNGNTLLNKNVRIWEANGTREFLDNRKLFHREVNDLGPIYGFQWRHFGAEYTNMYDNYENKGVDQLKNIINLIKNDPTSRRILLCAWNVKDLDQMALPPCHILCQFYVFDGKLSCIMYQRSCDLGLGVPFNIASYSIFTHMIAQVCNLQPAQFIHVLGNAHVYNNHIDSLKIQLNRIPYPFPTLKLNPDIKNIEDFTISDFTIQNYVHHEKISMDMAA
Assay: Inhibition of Plasmodium falciparum DHFR at 10 uM using DHF as substrate preincubated for 15 mins followed DHF addition measured after 15 mins by spectrophotometric method
Known inhibition of a selection of compounds

[
  {
    "Compound": "COc1ccc(C(=O)NCCc2ccc(CNc3ccc4nc(N)nc(N)c4c3)cc2)cc1OC",
    "Units Symbol": "%",
    "inhibition": 100
  },
  {
    "Compound": "Nc1nc(N)c2cc(NCc3ccc(CCNC(=O)c4ccco4)cc3)ccc2n1",
    "Units Symbol": "%",
    "inhibition": 97.8
  },
  {
    "Compound": "Nc1nc(N)c2cc(NCc3ccc(CCNC(=O)C4CCCCC4)cc3)ccc2n1",
    "Units Symbol": "%",
    "inhibition": 96
  },
  {
    "Compound": "Nc1nc(N)c2cc(NCc3ccc(CCNC(=O)c4ccc(F)cc4)cc3)ccc2n1",
    "Units Symbol": "%",
    "inhibition": 96.7
  },
  {
    "Compound": "COc1ccc(C(=O)NCCc2ccc(CNc3ccc4nc(N)nc(N)c4c3)cc2)cc1Cl",
    "Units Symbol": "%",
    "inhibition": 51.2
  },
  {
    "Compound": "Nc1nc(N)c2cc(NCc3ccc(CCNC(=O)c4ccccc4F)cc3)ccc2n1",
    "Units Symbol": "%",
    "inhibition": 100
  },
  {
    "Compound": "COc1cc(OC)cc(C(=O)NCCc2ccc(CNc3ccc4nc(N)nc(N)c4c3)cc2)c1",
    "Units Symbol": "%",
    "inhibition": 100
  },
  {
    "Compound": "Nc1nc(N)c2cc(NCc3ccc(CCNC(=O)c4ccc(Cl)cc4F)cc3)ccc2n1",
    "Units Symbol": "%",
    "inhibition": 68.2
  },
  {
    "Compound": "Nc1nc(N)c2cc(NCc3ccc(CCNC(=O)c4ccc([N+](=O)[O-])cc4)cc3)ccc2n1",
    "Units Symbol": "%",
    "inhibition": 94.7
  },
  {
    "Compound": "COc1ccc(C(=O)NCCc2ccc(CNc3ccc4nc(N)nc(N)c4c3)cc2)cc1",
    "Units Symbol": "%",
    "inhibition": 95.1
  },
  {
    "Compound": "Nc1nc(N)c2cc(NCc3ccc(CCNC(=O)c4ccncc4)cc3)ccc2n1",
    "Units Symbol": "%",
    "inhibition": 51.5
  },
  {
    "Compound": "Nc1nc(N)c2cc(NCc3ccc(CCNC(=O)c4ccc5ccccc5c4)cc3)ccc2n1",
    "Units Symbol": "%",
    "inhibition": 100
  },
  {
    "Compound": "CC(C)(C)C1CCC(C(=O)NCCc2ccc(CNc3ccc4nc(N)nc(N)c4c3)cc2)CC1 (stereo not given)",
    "Units Symbol": "%",
    "inhibition": 99.9
  },
  {
    "Compound": "Nc1nc(N)c2cc(NCc3ccc(CCNC(=O)c4ccc5c(c4)OCO5)cc3)ccc2n1",
    "Units Symbol": "%",
    "inhibition": 100
  },
  {
    "Compound": "Nc1nc(N)c2cc(NCc3ccc(CCNC(=O)CCc4ccccc4)cc3)ccc2n1",
    "Units Symbol": "%",
    "inhibition": 98.6
  }
]

----------
Known inhibition of a selection of molecules
Target: Falcipain 2 (Plasmodium falciparum)
Assay: Inhibition of Plasmodium falciparum FP2 at 10 uM using Z-Leu-Arg-AMC as substrate preincubated for 30 min followed by substrate addition measured after 30 mins by spectrofluorimetric method

[
  {
    "Molecule": "Nc1nc(N)c2cc(NCc3ccc(CCNC(=O)Cc4ccccc4)cc3)ccc2n1",
    "Experimental System": "Falcipain 2 (Plasmodium falciparum)",
    "inhibition": "65%"
  },
  {
    "Molecule": "Nc1nc(N)c2cc(NCc3ccc(CCNC(=O)c4ccc5c(c4)OCCO5)cc3)ccc2n1",
    "Experimental System": "Falcipain 2 (Plasmodium falciparum)",
    "inhibition": "34.9%"
  },
  {
    "Molecule": "COc1cc(OC)cc(C(=O)NCCc2ccc(CNc3ccc4nc(N)nc(N)c4c3)cc2)c1",
    "Experimental System": "Falcipain 2 (Plasmodium falciparum)",
    "inhibition": "41.1%"
  },
  {
    "Molecule": "Nc1nc(N)c2cc(NCc3ccc(CCNC(=O)c4ccc(F)cc4)cc3)ccc2n1",
    "Experimental System": "Falcipain 2 (Plasmodium falciparum)",
    "inhibition": "52.7%"
  },
  {
    "Molecule": "Nc1nc(N)c2cc(NCc3ccc(CCNC(=O)c4ccncc4)cc3)ccc2n1",
    "Experimental System": "Falcipain 2 (Plasmodium falciparum)",
    "inhibition": "22.9%"
  },
  {
    "Molecule": "Nc1nc(N)c2cc(NCc3ccc(CCNC(=O)c4ccc([N+](=O)[O-])cc4)cc3)ccc2n1",
    "Experimental System": "Falcipain 2 (Plasmodium falciparum)",
    "inhibition": "67%"
  },
  {
    "Molecule": "COc1ccc(C(=O)NCCc2ccc(CNc3ccc4nc(N)nc(N)c4c3)cc2)cc1OC",
    "Experimental System": "Falcipain 2 (Plasmodium falciparum)",
    "inhibition": "31.3%"
  },
  {
    "Molecule": "CC(C)(C)C1CCC(C(=O)NCCc2ccc(CNc3ccc4nc(N)nc(N)c4c3)cc2)CC1 (centres undefined)",
    "Experimental System": "Falcipain 2 (Plasmodium falciparum)",
    "inhibition": "55.8%"
  },
  {
    "Molecule": "Nc1nc(N)c2cc(NCc3ccc(CCNC(=O)c4cccc(F)c4)cc3)ccc2n1",
    "Experimental System": "Falcipain 2 (Plasmodium falciparum)",
    "inhibition": "49.8%"
  },
  {
    "Molecule": "Nc1nc(N)c2cc(NCc3ccc(CCNC(=O)CCc4ccccc4)cc3)ccc2n1",
    "Experimental System": "Falcipain 2 (Plasmodium falciparum)",
    "inhibition": "55.2%"
  },
  {
    "Molecule": "COc1ccc(C(=O)NCCc2ccc(CNc3ccc4nc(N)nc(N)c4c3)cc2)cc1",
    "Experimental System": "Falcipain 2 (Plasmodium falciparum)",
    "inhibition": "21.2%"
  },
  {
    "Molecule": "COc1cccc(C(=O)NCCc2ccc(CNc3ccc4nc(N)nc(N)c4c3)cc2)c1",
    "Experimental System": "Falcipain 2 (Plasmodium falciparum)",
    "inhibition": "52.6%"
  },
  {
    "Molecule": "Nc1nc(N)c2cc(NCc3ccc(CCNC(=O)c4cccs4)cc3)ccc2n1",
    "Experimental System": "Falcipain 2 (Plasmodium falciparum)",
    "inhibition": "67.6%"
  },
  {
    "Molecule": "Nc1nc(N)c2cc(NCc3ccc(CCNC(=O)c4ccccc4F)cc3)ccc2n1",
    "Experimental System": "Falcipain 2 (Plasmodium falciparum)",
    "inhibition": "44.6%"
  }
]
